- Test system: CAKI-1
- Assay Summary: NCI tumour cell line growth inhibition, 48 h
The source made the active and inactive calls. Rule as the data show it: active = GI50 up to about 1.1 µM and inactive = higher.
Readout Name: GI50

Measured GI50 of COc1ccc(C=C2C(C)=NN(c3cccc(Cl)c3)C23C(Cl)C(=O)N3c2nc3ccccc3s2)cc1 (stereo unspecified) : 23.2 µM (inactive)

Measured GI50 of COC1=C2CC(C)CC(OC)[C@@H](OC(=O)CCN)[C@H](C)/C=C(\C)C(OC(N)=O)C(OC)/C=C\C=C(/C)C(=O)NC(=CC1=O)C2=O (stereo partly specified) : 4.6 µM (inactive)

Measured GI50 of CCOC(=O)c1cc(C2=CCNC2=O)c(-c2cc(C)no2)[nH]1 : > 100 µM (inactive)

Measured GI50 of CC(=O)C1C(=O)C(=O)N(c2cccc([N+](=O)[O-])c2)C1=O (stereo unspecified) : > 100 µM (inactive)

Measured GI50 of CC1=C2[C@H](c3ccccc3)C3C=CC2(c2ccccc23)N(C(=O)C(c2ccccc2)c2ccccc2)C1=O (stereo partly specified) : > 100 µM (inactive)

Measured GI50 of CC(C#N)(NO)C(C)(C#N)NO (stereo unspecified) : > 100 µM (inactive)

Measured GI50 of Cc1nc(=O)[nH]c2s/c(=N/C3CCCCC3)n(C3CCCCC3)c(=O)c12 : > 100 µM (inactive)

Measured GI50 of Nc1cccc(/C=C/CN2CCN(CCOC(c3ccccc3)c3ccccc3)CC2)c1 : 19.8 µM (inactive)

Measured GI50 of O=P(O)(O)C(NCC(O)CN1CCOCC1)P(=O)(O)O (stereo unspecified) : > 100 µM (inactive)

Measured GI50 of Cc1cc(C)n(CN(Cn2nc(C)cc2C)c2ccc(N(Cn3nc(C)cc3C)Cn3nc(C)cc3C)cc2)n1 : 26.1 µM (inactive)

Measured GI50 of COC(=O)C1CCC(=O)N1CN(C(C)=O)c1ccccc1 (stereo unspecified) : > 100 µM (inactive)

Measured GI50 of Cc1ccnc(Nc2[nH]c(C(=O)c3ccc(Cl)cc3)c(N)c2C(=S)Nc2ccccc2)c1 : 27.9 µM (inactive)

Measured GI50 of C[Si](C)(C)C#C[I+]c1ccccc1 : 42.8 µM (inactive)

Measured GI50 of C=CCNC1=NC(=O)C(CC(=O)Nc2ccc([N+](=O)[O-])cc2[N+](=O)[O-])S1 (stereo unspecified) : 83.8 µM (inactive)

Measured GI50 of CN(C)/C(=N/C(=S)Nc1ccccc1)SCc1ccccc1 : 24.2 µM (inactive)

Measured GI50 of O=C1c2ccccc2-c2oc(=O)c3ccccc3c21 : > 100 µM (inactive)

Measured GI50 of Cc1ccc(C(=O)N/N=C(\N=N\c2ccccc2)c2ccc(N(C)C)cc2)cc1 : 44.5 µM (inactive)

Measured GI50 of COc1ccc(/C=N/N=C(\N)NO)c(O)c1 : 4.11 µM (inactive)

Measured GI50 of O=c1[nH]c(=O)n(CCOCP(=O)(O)O)nc1Br : > 100 µM (inactive)

Measured GI50 of Cc1c(N2C(=O)/C(=C/C=C/c3ccccc3)N=C2c2ccccc2)c(=O)n(-c2ccccc2)n1C : 37.8 µM (inactive)

Measured GI50 of Cc1cc(OCc2nnc3n2N=C(c2cc(F)c(Cl)cc2Cl)/C(=C/c2ccc(Cl)cc2)S3)ccc1Cl : 18.6 µM (inactive)
